study target: TgCDPK1 (Toxoplasma gondii, UniProt Q9BJF5)
Sequence (Q9BJF5 1-507): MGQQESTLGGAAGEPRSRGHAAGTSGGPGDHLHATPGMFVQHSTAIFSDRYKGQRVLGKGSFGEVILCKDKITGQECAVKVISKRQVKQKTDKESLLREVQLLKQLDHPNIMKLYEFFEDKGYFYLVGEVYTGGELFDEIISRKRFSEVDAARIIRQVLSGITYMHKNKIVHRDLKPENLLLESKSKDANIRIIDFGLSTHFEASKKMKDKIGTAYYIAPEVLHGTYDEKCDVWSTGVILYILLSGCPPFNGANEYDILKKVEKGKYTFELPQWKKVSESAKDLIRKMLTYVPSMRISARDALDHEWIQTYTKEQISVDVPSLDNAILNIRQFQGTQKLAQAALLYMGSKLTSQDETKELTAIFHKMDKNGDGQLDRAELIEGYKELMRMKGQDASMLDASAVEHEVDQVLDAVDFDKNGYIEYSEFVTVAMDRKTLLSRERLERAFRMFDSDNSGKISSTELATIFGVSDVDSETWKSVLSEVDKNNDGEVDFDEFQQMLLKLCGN
test description: biochemical
condition description: read-out: Enzyme Inhibition (IC50, μM) Tg CDPK1
metric: IC50 (µM)
Express the result in µM but write the number alone.

Checklist item: IC50 tested on TgCDPK1 (Toxoplasma gondii, UniProt Q9BJF5), entry CCCOc1ccc2cc(-c3nn(C(C)(C)C)c(N)c3C(N)=O)ccc2c1 [Compound 26] , value?
0.007

----------
Test system: P-gp
test description: Diffusion across the MDCK-PGP monolayer
Type: in vitro ADME
condition description: dog, MDCK-MDR1; predicts CNS penetration
metric: Papp (×10⁻⁶ cm/s)
Express the result in ×10⁻⁶ cm/s but write the number alone.

Look up Papp for this compound: CCOc1ccc2cc(-c3nn(C(C)(C)C)c(N)c3C(N)=O)cnc2c1 [Compound 39]
56.3

----------
test description: Cytotoxicity against CRL8155 cell line
Type: cell-based
condition description: human, CRL8155 cells (lymphoblast, spleen), Table 2; read-out: Cytotoxicity (CRL8155) EC50
metric: EC50

See these solved cases before continuing.
CCOc1ccc2cc(-c3nn(C(C)(C)C)c(N)c3C(N)=O)cnc2c1	> 30 µM
COc1ccc2cc(-c3nn(C(C)(C)C)c(N)c3C(N)=O)ccc2c1	> 40 µM
CC(C)(C)n1nc(-c2cnc3ccccc3c2)c(C(N)=O)c1N	> 40 µM

Look up EC50 for this compound: "CC(C)(C)Cn1nc(-c2ccc3ccccc3c2)c(C(N)=O)c1N"
> 40 µM

----------
study target: CpCDPK1 (Cryptosporidium parvum (strain Iowa II), UniProt A3FQ16)
Sequence (A3FQ16 1-538): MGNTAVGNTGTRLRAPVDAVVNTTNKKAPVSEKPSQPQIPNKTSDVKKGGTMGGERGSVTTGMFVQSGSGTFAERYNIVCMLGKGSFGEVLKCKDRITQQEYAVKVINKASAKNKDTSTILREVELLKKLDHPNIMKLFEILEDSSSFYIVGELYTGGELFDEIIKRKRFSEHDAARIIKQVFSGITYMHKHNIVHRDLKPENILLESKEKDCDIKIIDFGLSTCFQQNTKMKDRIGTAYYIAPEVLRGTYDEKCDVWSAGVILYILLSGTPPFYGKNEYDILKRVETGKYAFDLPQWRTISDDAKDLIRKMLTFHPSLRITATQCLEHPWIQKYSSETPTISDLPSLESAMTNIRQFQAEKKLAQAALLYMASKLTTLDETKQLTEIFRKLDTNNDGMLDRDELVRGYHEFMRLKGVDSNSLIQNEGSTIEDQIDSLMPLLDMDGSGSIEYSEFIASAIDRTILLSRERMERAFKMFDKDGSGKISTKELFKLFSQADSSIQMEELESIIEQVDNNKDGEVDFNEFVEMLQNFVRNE
test description: biochemical
condition description: Table 1; KinaseGlo, Syntide 2 peptide substrate; read-out: CpCDPK1 IC50
IC50: recorded values
Express the result in nM but write the number alone.

See these solved cases before continuing.
CCOc1ccc2cc(-c3nn(C(C)(C)C)c(N)c3C(N)=O)ccc2n1	3
CCOc1ccc2cc(-c3nn(C(C)C4CC4)c(N)c3C(N)=O)cnc2c1 (centres unmarked)	5
CC(C)(C)n1nc(-c2cnc3cc(C(F)(F)F)ccc3c2)c(C(N)=O)c1N	222

Please find the next compound below.
Checklist item: IC50 tested on CpCDPK1 (Cryptosporidium parvum (strain Iowa II), UniProt A3FQ16), entry "COc1ccc2cc(-c3nn(C(C)(C)C)c(N)c3C(N)=O)cnc2c1" , value?
3

----------
study target: Src (Homo sapiens (Human), UniProt P12931)
Sequence (P12931 270-523): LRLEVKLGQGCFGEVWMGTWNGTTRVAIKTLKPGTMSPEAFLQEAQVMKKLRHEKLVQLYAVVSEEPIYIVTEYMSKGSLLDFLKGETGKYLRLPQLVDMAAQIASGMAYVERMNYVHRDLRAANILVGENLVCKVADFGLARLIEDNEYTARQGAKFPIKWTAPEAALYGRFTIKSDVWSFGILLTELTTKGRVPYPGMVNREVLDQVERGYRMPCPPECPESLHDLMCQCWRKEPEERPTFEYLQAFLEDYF
test description: biochemical
IC50: recorded values

See these solved cases before continuing.
NC(=O)c1c(-c2ccc3nc(OC4CCC4)ccc3c2)nn(C2CCCCC2)c1N	> 10 µM
CCCOc1ccc2cc(-c3nn(C(C)(C)C)c(N)c3C(N)=O)ccc2c1	7.8 µM
NC(=O)c1c(-c2ccc3nc(OC4CCC4)ccc3c2)nn(C2CCCC2)c1N	> 10 µM

Please find the next compound below.
Look up IC50 for this compound: "CC(C)(CO)Cn1nc(-c2cnc3cc(OC4CCC4)ccc3c2)c(C(N)=O)c1N"
> 10 µM

----------
test description: Cell toxicity in HepG2
Assay type: cell-based
condition description: human, HepG2 cells (hepatocellular carcinoma); Table 4
EC50: recorded values

See these solved cases before continuing.
CCCOc1ccc2cc(-c3nn(C(C)(C)C)c(N)c3C(N)=O)cnc2c1	> 40 µM
COc1ccc2cc(-c3nn(C(C)(C)C)c(N)c3C(N)=O)ccc2c1	> 40 µM
CCOc1ccc2cc(-c3nn(C(C)C)c(N)c3C(N)=O)cnc2c1	> 40 µM
CCOc1ccc2cc(-c3nn(C4CCCCC4)c(N)c3C(N)=O)cnc2c1	> 40 µM

Look up EC50 for this compound: "CCCOc1ccc2cc(-c3nn(C(C)(C)C)c(N)c3C(N)=O)ccc2c1"
> 40 µM

Look up EC50 for this compound: "COc1ccc2cc(-c3nn(C(C)(C)C)c(N)c3C(N)=O)cnc2c1"
> 40 µM

Look up EC50 for this compound: "CCOc1ccc2cc(-c3nn(C(C)(C)C)c(N)c3C(N)=O)cnc2c1"
> 40 µM

Look up EC50 for this compound: "CCOc1ccc2cc(-c3nn(C(C)(C)C)c(N)c3C(N)=O)ccc2c1"
> 40 µM
